assay-overview: calcium flux effects in cells lacking MrgX1 – parental HEK293 cells, Fluo-4 calcium flux, counter-screen for MrgX1 antagonist project, confirmation (AID 624111)
particulars: parental HEK293, Fluo-4 calcium fluorescence, FDSS; at 10 µM
Among all 4,000 compounds or so, about 60 (2%) were called active.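 Rule for the calls: active = duplicate-averaged calcium fluorescence ratio at least three times the standard deviation of buffer wells, a nonspecific response in parental cells; inactive = the rest.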 This is one part of a sample in which actives are shown more often than they occur.
# valid calls are 1 (yes) = active, 0 (no) = inactive; nothing else

Solved cases below.
* CCCCC(=O)NNC(=S)NC(=O)C(c1ccccc1)c1ccccc1 | 0 (no)
* O=C1C(=O)N(CC2COc3ccccc3O2)c2ccccc21 (stereo unspecified) | 0 (no)
* COc1ccc(C(=O)NC(=S)NC2CCCCC2)cc1 | 0 (no)
* Cc1ccc2c(c1)c1ncnc(N3CCc4ccccc4C3)c1n2C | 0 (no)
* O=c1c2cc(Br)ccc2nc(-c2cccc(Cl)c2)n1O | 0 (no)

Query :: For COc1ccc(NC(=O)c2cc(-c3ccc(C)o3)nc3ccccc23)cc1 , what call appears in the results of this test?
Result :: 0 (no)

Query :: Name the outcome recorded for CC1CCN(S(=O)(=O)c2nnc(NC(=O)COc3ccccc3F)s2)CC1 in the assay.
Result :: 0 (no)

Query :: Answer briefly: the call reported for CCOC(=O)c1c(C)[nH]c(=S)c(C#N)c1-c1ccccc1 in this assay.
Result :: 0 (no)

Query :: Please let me know the test result on file for COC(=O)c1c(NC(=O)CN(c2ccc(C)c(C)c2)S(C)(=O)=O)sc2c1CCCC2 .
Result :: 0 (no)
